System: 786-0 renal
Assay: NCI tumour cell line growth inhibition, 48 h
propertyLabel: TGI (µM)
Numbers only, in µM.

COc1cc(O)c(C(=O)/C=C/c2ccc(O)cc2)c(O)c1[C@@H]1C[C@H](CCc2ccc(O)cc2)O[C@H](c2ccc(O)cc2)C1 = 7.1

With those in mind, consider the next compound.
Looking for the measured TGI of `COC(=O)C1=C(C)NC(C)=C(C(=O)OC)C1/C=C(Cl)/C=C/c1ccccc1` , can you help? 70.5

---

Tested on: CCRF-CEM leukemia
Experiment: NCI tumour cell line growth inhibition, 48 h
Assignment: determine reported TGI for the given molecules.

NC1CC2NC3CCCCC3NC2CC1N (stereo not given) = > 100 µM
COc1ccc(-c2nc3ccccn3c2/C=C/C(=O)c2cc(OC)c(OC)c(OC)c2)cc1 = > 100 µM
C/C(=C/C(=O)Nn1c(Cc2ccccc2)n[nH]c1=O)C(=O)O = > 100 µM
CCCCCCCCCCCCCC[S+](C)C = 3.25 µM
CC(=O)O[C@]1(C(C)=O)CC[C@H]2[C@@H]3C=C(C)C4=CC(=O)CC[C@]4(C)[C@H]3CC[C@@]21C = > 100 µM
CC(=O)N(O)[C@@H]1CC[C@H](n2cnc3c(N)ncnc32)C1 = > 100 µM

Hi there! I need TGI for each item below, if you can.
1. COc1cc2c3c(n(CCCI)c(=O)c2cc1OC)-c1cc2c(cc1C3=O)OCO2
2. c1csc(-c2cc(-c3cccs3)c(-c3cccs3)s2)c1

> 100 µM
> 100 µM

---

Test system: T-47D breast
Assay: NCI tumour cell line growth inhibition, 48 h
propertyLabel: GI50

COc1cc2c(cc1Nc1nc(Nc3ccsc3C(N)=O)c3cc[nH]c3n1)N(C(=O)CN(C)C)CCC2(C)C = 3.08 µM

Give me GI50 for each of these compounds, listed below.
1. O=C(/C=C/c1cc([N+](=O)[O-])ccc1Cl)c1ccccc1
2. COc1cc(/C=C/C(=O)c2ccc(NC(=O)CN3CCN(c4cc5c(cc4F)c(=O)c(C(=O)O)cn5C4CC4)CC3)cc2)cc(OC)c1OC
3. Nc1nc(-c2ccc(F)cc2)c(-c2ccc3ncccc3n2)s1

27.9 µM
1.67 µM
4.32 µM

---

Tested on: NCI-H23 lung
Test: NCI tumour cell line growth inhibition, 48 h
Where a SMILES comes first, the peptide text is derived from it. The star is where a group is joined. Fmoc = O=C(OCC1c2ccccc2-c2ccccc21)*; Boc = CC(C)(C)OC(=O)*
The label depends only on TGI: YES if it is at least 40 µM, NO if it is smaller.

CC1C[C@@H]2C(=O)NC(=O)[C@@H]2c2c1c1ccccc1n2C (some centres not stated) = YES

Does the reported TGI for `CC1(C)Cc2cc(C(=O)O)c3c(c2C1=O)COCC3` fall at or above the 40 µM mark? YES

Again, but for `Cc1noc2nnn(-c3ccc(Cl)cc3)c(=O)c12` NO

Cool, now CC(=O)OC(CCC1(C)OC1COc1ccc(CCNC(=O)c2ccccc2)cc1)C(C)(C)OC(C)=O (configuration not stated) YES

Lookup CC(C)(C)OC(=O)NCCCCC(NC(=O)OCC1c2ccccc2-c2ccccc21)C(=O)N1CCCC1C(=O)NCC(N)=O (stereo not drawn) (Fmoc-Lys(Boc)-Pro-Gly-NH2; configuration not given here) YES

Then this compound: `CN(C)CCNC(=O)c1cccc2c1nc(-c1ccccc1)c1ccccc12` NO
